- Test system: 17 highly resistant MRSA strains
- assay: In vitro activity: minimum inhibitory concentration (MIC) by the agar dilution method in Mueller Hinton agar, 17 highly resistant MRSA strains
- Assay type: cell-based, Methicillin resistant Staphylococcus aureus (MRSA)
- stated conditions: Table 2, substance alone, inoculum =10^5 CFU/spot
readout name: MIC50

Worked examples, 2 molecules total:
{"molecule": "C[C@]1(/C=C\\C#N)[C@H](C(=O)[O-])N2C(=O)C[C@H]2S1(=O)=O.[Na+] [compound B, reference compound]", "observed": "> 16 µg/mL"}
{"molecule": "O=C(C[n+]1ccc(CN2CC/C(=C\\C3=C(C(=O)[O-])N4C(=O)[C@@H](NC(=O)CSc5nc6ccccc6s5)[C@H]4SC3)C2=O)cc1)Nc1ccc(O)cc1 [Ex. 2]", "observed": "> 16 µg/mL"}

# next molecule below
Consider the molecule shown here: O=C(C[n+]1ccc(CN2CC/C(=C\C3=C(C(=O)[O-])N4C(=O)[C@@H](NC(=O)CSc5cc(Cl)ccc5Cl)[C@H]4SC3)C2=O)cc1)Nc1ccc(O)c(F)c1 [Ex. 10] What is its recorded MIC50?
> 16 µg/mL

FYI, the data here is from patent US6150350A.
